Source listed as PubChem BioAssay AID1996.

conditions: buffer; pH 7.4; 200.0 µM
Categorize each record by its solubility kinetic using LOW (below 8 µg/mL), MID (8 µg/mL to below 30 µg/mL), HIGH (30 µg/mL or more)

>>> group_label("CN(CCC#N)S(=O)(=O)c1cc2c3c(c1)CCN3C(=O)CC2")
"HIGH"
>>> group_label("Fc1ccc(C(CCNCc2cccs2)c2ccco2)cc1 (centres undefined)")
"HIGH"
>>> group_label("CC(=O)/C(C#N)=C1\\NC(=O)C(Cc2ccccc2C)S1 (centres undefined)")
"HIGH"
>>> group_label("Cc1cn(C2OC(CC(=O)Oc3ccccc3)C(O)C2O)c(=O)[nH]c1=O (centres undefined)")
"HIGH"
>>> group_label("COc1ccc(CN2C(=O)c3ccccc3C2=O)cc1")
"LOW"
>>> group_label("CCNC(=S)Nc1ccc2c(c1)oc1ccccc12")
"LOW"
>>> group_label("O=C(Nc1ccc2[nH]c(=O)[nH]c2c1)C(F)(F)F")
"MID"
>>> group_label("CCOC(=O)c1c(C)nsc1NC(=O)C1CCCCC1")
"MID"
>>> group_label("Br.CCc1ccc(C2=CSC3=NCCN23)cc1")
"HIGH"
>>> group_label("COc1ccc(CCC(=O)NCc2cccc(C(F)(F)F)c2)cc1")
"MID"

Input `Cc1ccc([N+](=O)[O-])cc1NC(=O)CNC1CCCCC1` ; output its category
HIGH

Using the reported solubility kinetic, which band applies to O=C(CN1C(=O)NC(CCc2ccccc2)C1=O)Nc1ccc(F)c(F)c1F (centres undefined) ?
LOW

Kindly state the category for this compound: `Cc1ccc(C)c(NC(=S)N2CCN(c3ccccn3)CC2)c1`
MID

Hello team, could you let me know which band the following compound falls into: `Cc1cc(NC(=O)Nc2cccc([N+](=O)[O-])c2)no1`
LOW

GET /class?item= `Cc1ccc(CNC(=O)Nc2ccc(Cl)cc2)cc1`
LOW

Sort into band: `CCOC(=O)c1sc(=S)n(C)c1NC(=O)c1ccc(C(C)(C)C)cc1`
LOW

Bin this entry: `COc1ccc(Nc2ccc(N3C(=O)CCC3=O)cc2[N+](=O)[O-])cn1`
LOW

---

conditions: buffer; pH 7.4; 200.0 µM
Kindly return satisfied if reported solubility kinetic is no lower than 9 µg/mL; return not satisfied if it is lower.

>>> group_label("Cc1cc(C(=O)NC(C)C2CCCO2)c(C)o1 (configuration not stated)")
"satisfied"
>>> group_label("O=C(Nc1ccc2c(c1)CCC2)c1cccc(OC(F)F)c1")
"satisfied"
>>> group_label("CC(OC(=O)Cc1ccc(Br)cc1)C(=O)NC1CCCC1 (configuration not stated)")
"satisfied"

// switching to the query compound
# check: solubility kinetic of `CN1CCSc2ccc(C(=O)Nc3ccc(Cl)cc3)cc21` is greater than or equal to 9 µg/mL
not satisfied

---

settings: buffer; pH 7.4; 200.0 µM
Observation Type: log10 solubility kinetic (log10 of the value in µg/mL)
Scale: log10; quantity: solubility kinetic; unit before log: µg/mL

Item: `N#Cc1ccsc1NC(=O)c1ccc(Cl)c([N+](=O)[O-])c1` | log10 solubility kinetic: 0.46

The recorded log10 solubility kinetic for `Cc1cc(C)cc(NS(=O)(=O)c2ccc3[nH]c(=O)ccc3c2)c1` is 0.18

// `O=C(Cc1ccccc1[N+](=O)[O-])OCC(=O)c1ccccc1Br` : log10 solubility kinetic value = 1.59

Lab note: measured log10 solubility kinetic of CC(OC(=O)c1ccc(O)cc1)C(=O)Nc1ccc(Oc2ccccc2)cc1 (configuration not stated) was 0.70
